# method.notes: qHTS of pediatric cancer cell lines to identify multiple opportunities for drug repurposing: Primary screen for OHS-50 cells (AID 1347103); note: nearly all actives have a fitted effect of over 40% in size
# particulars: OHS-50 osteosarcoma viability, CellTiter-Glo luminescence, 48 h; series mostly up to 57.3 µM
Records with an inconclusive call do not appear. Active and inactive are the calls of the source. Calls come from the whole dose curve; as a rule, active = well fitted cell-killing curve with a large enough effect; inconclusive = small, poorly fitted or top-dose-only effect; inactive = no such curve, though single readings can be large or run the other way.
Pick one and only one: active, inactive

                                   compound  assigned_label
0  Cc1nnc(C(C)C)n1C1C[C@H]2CC[C@@H](C1)N2CC[C@H](NC(=O)C1CCC(F)(F)CC1)c1ccccc1 (stereo not given in full)        inactive
1  CC1(C)Cc2c(sc(NC(=S)NC(=O)c3ccccc3)c2C(=O)O)CO1        inactive
2  CC(C)C(C)C=CC(C)C1CCC2C3=CC=C4CC(O)CCC4(C)C3CCC21C (stereo not given)        inactive
3  C=C1C(=O)OC2C=C(C)CCC=C(C)CCC12 (stereo not given)        inactive

As a next step, examine the compound that follows.
Given O=C1NC(=O)C(=Cc2ccc3nccnc3c2)S1 , state the outcome it received in this test.
active

###

# method.notes: Quantitative High-Throughput drug screen in 47 multiple myeloma cell lines against the NCATS MIPE library collection: Karpas620_DSMZ cell viability assay (AID 1918959); note: nearly all actives have a fitted effect of over 30% in size; note: potency is the fitted concentration of half-maximal effect
# particulars: Karpas620 myeloma viability, CellTiter-Glo ATP luminescence, 48 h; series mostly up to 45.8 µM
Results filed as inconclusive are left out. Activity calls are given as the source filed them. Calls follow the shape of the dose curve; as a rule, active = well fitted cell-killing curve with a large enough effect; inconclusive = small, poorly fitted or top-dose-only effect, or effect the other way; inactive = no such curve, though single readings can be large or run the other way.
reported.metric: Potency

Solved entries:
compound	reported.metric	meas.value
Cc1ccc(F)c(NC(=O)Nc2ccc(-c3cccc4[nH]nc(N)c34)cc2)c1	Potency	20.9 µM (active)
N#CC(=C(N)Sc1ccccc1N)C(C#N)=C(N)Sc1ccccc1N	Potency	16.6 µM (active)
Cc1ccccc1C(C(=O)NC1CCCCC1)N(C(=O)Cn1ccnc1C)c1cccc(F)c1 (stereo not drawn)	Potency	inactive
CCC(=O)NC[C@H](Cc1ccc(OCCc2nc(-c3ccccc3)oc2C)cc1)NC(C)=CC(=O)c1ccc(C(F)(F)F)cc1	Potency	inactive
CC(C)C[C@H](CC(=O)O)C(=O)N[C@@H](Cc1c[nH]c2ccccc12)C(=O)N[C@@H](C)c1ccccc1	Potency	inactive

What Potency value was documented for this compound, Clc1ccc(CCC(Cn2ccnc2)Sc2c(Cl)cccc2Cl)cc1 (stereo not drawn) ?
18.7 µM (active)

What Potency value was documented for this compound, CC1(C)CCC[C@@]2(C)[C@@H]1CC[C@@]1(C)OC(=O)C[C@H]21 ?
inactive

What Potency value was documented for this compound, NC[C@@H]1O[C@@H](O[C@H]2[C@@H](O)[C@H](O[C@@H]3[C@@H](O)[C@@H](N)C[C@H](N)[C@H]3O[C@H]3O[C@H](CN)[C@@H](O)[C@@H](O)[C@H]3N)O[C@H]2CO)[C@H](N)[C@@H](O)[C@@H]1O ?
inactive

###

# Test system: CRL-7250
# method.notes: Cytotoxic Profiling of Annotated Libraries Using Quantitative High-Throughput Screening (AID 1296008); note: nearly all actives have a fitted effect of over 60% in size
# particulars: Five cell lines viability, CellTiter-Glo ATP luminescence, 48-72 h
# Protocol: Cell-based phenotypic screening is a commonly used approach to discover biological pathways, novel drug targets, chemical probes and high-quality hit-to-lead molecules. […] A pintool (Kalypsys) was used to transfer 23 nL of compound solution to the 1536-well assay plates. […] Plates were left at room temperature for 10 min before imaging the ATP-coupled luminescence using a ViewLux microplate imager (PerkinElmer, Waltham, MA).
Records with an inconclusive call do not appear. Calls of active or inactive are those of the source. The call rests on the fitted dose curve; in most records, active means well fitted inhibition curve with a large enough effect; inconclusive means small, poorly fitted or top-dose-only effect; inactive means flat fitted curve, though single readings scatter.
Pick one and only one: T (active), F (inactive)

Please review the entries below; each comes with its answer.
molecule	assigned.label
CC(C)(Cc1ccc2ccccc2c1)NC[C@@H](O)COc1cccc(Cl)c1C#N	F
CN(C)Cc1cccc(N=C(c2ccccc2)c2c(O)[nH]c3cc(C(=O)N(C)C)ccc23)c1	T
COC(=O)N[C@H](C(=O)N1CCC[C@@H]1c1ncc(-c2ccc(-c3ccc(-c4cnc([C@@H]5CCCN5C(=O)[C@@H](NC(=O)OC)C(C)C)[nH]4)cc3)cc2)[nH]1)C(C)C	F

As a next step, examine the molecule that follows.
Given Cc1ccccc1C(C(=O)NC1CCCCC1)N(C(=O)Cn1ccnc1C)c1cccc(F)c1 (centres undefined) , state the outcome it received in this test.
F

###

# Test system: WaGa
# method.notes: qHTS assay to identify novel small-molecules to repurpose for Merkel cell carcinoma treatment (AID 1296009); note: nearly all actives have a fitted effect of over 60% in size
# particulars: MCC and control cell lines, CellTiter-Glo viability, 72 h; series mostly up to 46 µM
Inconclusive results are not listed. Activity calls are given as the source filed them. Calls follow the shape of the dose curve; as a rule, active = well fitted inhibition curve with a large enough effect; inconclusive = small, poorly fitted or top-dose-only effect; inactive = flat fitted curve, though single readings scatter.
Pick one and only one: label 1 = active, label 0 = inactive

Please review the entries below; each comes with its answer.
>>> df
                                   compound  assigned_label
0  CC1(C)S[C@H]2[C@H](NC(=O)[C@@H](N)c3ccc(O)cc3)C(=O)N2[C@@H]1C(=O)O         label 1
1       CC=CCC=CCCC(=O)[C@H]1O[C@@H]1C(N)=O         label 0
2  COc1ccccc1N1CCN(CCCNc2cc(=O)n(C)c(=O)n2C)CC1         label 0
3  Cc1ccc(C(=O)Nc2cccc(C(F)(F)F)c2)cc1Nc1nc(-c2cccnc2)nc2c1cnn2C         label 0
4  CNC1CCC(N(Cc2cccc(-c3ccncc3)c2)C(=O)c2sc3c(F)ccc(F)c3c2Cl)CC1 (stereo not given)         label 0

Given COc1ccc2c(Oc3ccc(NC(=O)c4c(C)n(CC(C)(C)O)n(-c5ccccc5)c4=O)nc3)ccnc2c1 , state the outcome it received in this test.
label 0

###

# method.notes: qHTS Screen of the MIPE 4.0 Collection Against Ewings Sarcoma (EW8) (AID 1259255); note: nearly all actives have a fitted effect of over 35% in size;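 for viability: 100% = DMSO-treated cells and 0% = medium-only wells without cells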
# particulars: EW8 Ewing sarcoma viability, CellTiter-Glo, 48 h; series mostly up to 45.8 µM
Results filed as inconclusive are left out. The source made the active and inactive calls. Calls follow the shape of the dose curve; as a rule, active = well fitted inhibition curve with a large enough effect; inconclusive = small, poorly fitted or top-dose-only effect; inactive = no such curve, though single readings can be large or run the other way.
Pick one and only one: y for active, n for inactive

molecule	assigned.label
Cc1ccc(C(=O)Nc2cccc(C(F)(F)F)c2)cc1Nc1nc(-c2cccnc2)nc2c1cnn2C	y
CO[C@H]1C=CC=C(C)C(=O)NC2=CC(=O)C(NCCN(C)C)=C(C[C@@H](C)C[C@H](OC)[C@@H](O)[C@@H](C)C=C(C)[C@@H]1OC(N)=O)C2=O	y
COc1ccc(-c2cc(=O)c3c(O)cc(O)cc3o2)cc1O	y
CC1(C)S[C@H]2[C@H](NC(=O)[C@@H](N)c3ccc(O)cc3)C(=O)N2[C@@H]1C(=O)O	n
NC1=N[C@@]2(c3cc(NC(=O)c4ccc(F)cn4)ccc3F)COC[C@@H]2CS1	n
C[C@@H]1CCN(C(=O)CC#N)C[C@H]1N(C)c1ncnc2[nH]ccc12	n

Given CNC(=O)c1ccc2cc(C3(O)CCn4cncc43)ccc2c1 (stereo not given) , state the outcome it received in this test.
n

Given CO[C@H]1C(=O)[C@]2(C)[C@@H](OC)C[C@H]3OC[C@@]3(OC(C)=O)[C@H]2[C@H](OC(=O)c2ccccc2)[C@]2(O)C[C@H](OC(=O)[C@H](O)[C@@H](NC(=O)OC(C)(C)C)c3ccccc3)C(C)=C1C2(C)C , state the outcome it received in this test.
n

Given COc1cc2nc(-c3ccc(N4CCN(C)CC4)cc3)nc(NCCN3CCOCC3)c2cc1OC , state the outcome it received in this test.
y

Given CC(=Cc1ccccc1)C=C1SC(=S)N(CC(=O)O)C1=O , state the outcome it received in this test.
n

###

# Test system: OV90
# method.notes: Primary qHTS to identify gynecologic anti-cancer compounds using libraries of approved drugs and bioactive compounds (AID 1345084); note: nearly all actives have a fitted effect of over 55% in size
# particulars: Gynecologic cancer cell panel viability, ATPlite luminescence, 48 h; series mostly up to 57.5 µM
Records with an inconclusive call do not appear. Active and inactive are the calls of the source. Calls come from the whole dose curve; as a rule, active = well fitted cell-killing curve with a large enough effect; inconclusive = small, poorly fitted or top-dose-only effect, or effect the other way; inactive = flat fitted curve, though single readings scatter.
Pick one and only one: yes (1) for active, no (0) for inactive

>>> print(df.to_string())
                                   compound  assigned_label
0  COC[C@@H](c1ccc(C(F)(F)F)cc1)N1CCN(C2(C)CCN(C(=O)c3c(C)ncnc3C)CC2)C[C@H]1C          no (0)
1                CCN(CC)CCNC(=O)c1ccc(N)cc1          no (0)
2  Cn1c(N2CCCCS2(=O)=O)nc(C(=O)NCc2ccc(F)cc2)c(O)c1=O          no (0)

Given Cc1ccccc1C(C(=O)NC1CCCCC1)N(C(=O)Cn1ccnc1C)c1cccc(F)c1 (centres undefined) , state the outcome it received in this test.
no (0)

Given O=C(Nc1ccccc1-c1cn2c(CN3CCNCC3)csc2n1)c1cnc2ccccc2n1 , state the outcome it received in this test.
no (0)

Given NC(N)=Nc1nc(CSCC/C(N)=N/S(N)(=O)=O)cs1 , state the outcome it received in this test.
no (0)

Given Cc1ccc(Nc2cc(-c3cccc(N4C(=O)c5ccccc5C4=O)c3)ncn2)cc1NS(C)(=O)=O , state the outcome it received in this test.
no (0)

Given CN(C)C1CCN(C(=O)c2ccc(NC(=O)Nc3nc(N4CCOCC4)nc(N4CCOCC4)n3)cc2)CC1 , state the outcome it received in this test.
yes (1)

Given O=C1NCC2(CCN(CCc3ccccc3)CC2)O1 , state the outcome it received in this test.
no (0)

Given COc1cc2ncnc(-n3nc(-c4ccccn4)nc3N)c2cc1OC , state the outcome it received in this test.
no (0)

Given COCCOc1nc(-c2ccc(Cl)c(Cl)c2)n(-c2ccc(NC(=O)CCl)cc2)n1 , state the outcome it received in this test.
no (0)

Given CC1CCC(C(=O)N(c2cc(C#CC(C)(C)C)sc2C(=O)O)C2CCC(O)CC2)CC1 (centres undefined) , state the outcome it received in this test.
no (0)

Given CCn1cc(C(=O)O)c(=O)c2ccc(C)nc21 , state the outcome it received in this test.
no (0)

Given CCCNC(=O)NS(=O)(=O)c1ccc(Cl)cc1 , state the outcome it received in this test.
no (0)

Given CN(C)Cc1ccc(-c2nc3cccc4c3n2CCNC4=O)cc1 , state the outcome it received in this test.
no (0)

Given O=C(O)Cc1cccc2ccccc12 , state the outcome it received in this test.
no (0)

Given CN(C)CCC(c1ccccc1)c1ccccn1 (centres undefined) , state the outcome it received in this test.
no (0)

Given CS(=O)(=O)N(Cc1ccco1)CC(O)Cn1c2ccccc2c2ccccc21 (centres undefined) , state the outcome it received in this test.
no (0)

Given CCS(=O)(=O)N1CC(CC#N)(n2cc(-c3ncnc4[nH]ccc34)cn2)C1 , state the outcome it received in this test.
no (0)

Given Cc1ccn(-c2ccc(-c3ncco3)cc2)c(=O)c1-c1ccc2nc(N)ncc2c1 , state the outcome it received in this test.
no (0)

Given COC(=O)[C@@H]1[C@H]2C[C@H]3c4[nH]c5ccccc5c4CCN3C[C@@H]2CC[C@@H]1O , state the outcome it received in this test.
no (0)

Given CS(=O)c1ccc(-c2nc(-c3ccc(F)cc3)c(-c3ccncc3)[nH]2)cc1 (centres undefined) , state the outcome it received in this test.
no (0)

Given CC(=O)c1ccc(S(=O)(=O)NC(=O)NC2CCCCC2)cc1 , state the outcome it received in this test.
no (0)
